Biological target: E3 ubiquitin-protein ligase XIAP (Homo sapiens) (UniProt P98170)
Sequence (P98170 whole entry, looked up): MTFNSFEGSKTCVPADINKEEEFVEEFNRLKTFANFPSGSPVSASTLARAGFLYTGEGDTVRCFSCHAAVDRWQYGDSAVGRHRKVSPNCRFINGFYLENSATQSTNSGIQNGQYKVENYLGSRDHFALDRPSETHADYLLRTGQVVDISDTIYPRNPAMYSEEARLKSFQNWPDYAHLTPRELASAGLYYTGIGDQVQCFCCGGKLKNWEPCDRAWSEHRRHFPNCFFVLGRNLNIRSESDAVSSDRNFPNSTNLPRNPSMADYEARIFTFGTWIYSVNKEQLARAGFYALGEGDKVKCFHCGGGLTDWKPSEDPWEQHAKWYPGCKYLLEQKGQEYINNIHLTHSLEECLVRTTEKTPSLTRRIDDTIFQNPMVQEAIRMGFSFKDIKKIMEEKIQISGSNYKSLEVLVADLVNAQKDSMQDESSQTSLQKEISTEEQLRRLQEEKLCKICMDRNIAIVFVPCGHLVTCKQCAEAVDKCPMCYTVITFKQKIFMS
Assay: XIAP binders, primary screen, biophysical, small-molecule microarray, fluorescence 635 nm (AID 1181);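 also: score merges 667 nm emission and signal to noise over triplicate slides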
Conditions: small-molecule microarray binding, higher = more signal
Measured quantity: composite z-score

{"columns": ["Compound", "Recorded value"],
 "data": [
  ["O=C1C2C=CC(C(O)Cc3ccccc3)N(n3cnnc3)C2C(=O)N1Cc1ccccc1 (centres undefined)", 0.0328],
  ["O=C(c1ccccc1)N1Cc2ccccc2C[C@@]2(COC(c3ccc(OCCCO)cc3)=N2)C1=O", -0.231],
  ["COc1ccc(/C=C/C=O)cc1", 0.128],
  ["C=C(C(=O)CC[C@@H](OC(=O)c1cccnc1)c1ccccc1OCCO)C(C)C", -0.0872],
  ["CC(C)(C)OC(=O)CC[C@]1(C(=O)N2CCOCC2)N=C(c2ccc(OCCCO)cc2)O[C@H]1c1ccccc1N=[N+]=[N-]", 0.115],
  ["COCCOC(=O)N1C(=O)[C@@]2(c3cc(C#CCC(C(=O)OC)C(=O)OC)ccc31)[C@H](c1ccccc1OCCO)N1[C@H](c3ccccc3)[C@H](c3ccccc3)OC(=O)[C@H]1[C@@H]2C(=O)N1CCN(c2ncccn2)CC1", -0.0095],
  ["COc1ccc(C#Cc2ccc3c(c2)[C@]2(C(=O)N3)[C@H](c3ccccc3OCCO)N3[C@H](c4ccccc4)[C@H](c4ccccc4)OC(=O)[C@H]3[C@@H]2C(=O)Nc2nc3ccccc3s2)cc1", 0.0471],
  ["CC1(C)[C@@H]2CC(C(O)C3C=CC4C(=O)N(c5ccccc5)C(=O)C4N3Nc3ccc([N+](=O)[O-])cc3)=C[C@H]1C2 (some centres undefined)", -0.141],
  ["O=C1C[C@@](C(=O)NCC(F)(F)F)(c2ccc([N+](=O)[O-])cc2)[C@@H](c2ccc(CO)cc2I)N1C1CCCCC1", -0.0172],
  ["C=C(CCCC)/C(=C/C[C@H](OC(=O)c1ccncc1)c1ccccc1OCCO)c1cnc2ccccc2c1", -0.252],
  ["O=C1C2C=CC(C(O)CCc3ccccc3)N(Nc3ccccc3F)C2C(=O)N1c1ccccc1 (centres undefined)", 0.272],
  ["C=CCOC(=O)[C@H]1[C@@H]2C(=O)O[C@@H](c3ccccc3)[C@@H](c3ccccc3)N2[C@@H](c2ccc(OCCOC(=O)[C@H]3C[C@H]4C(=O)N[C@@H](CCCCN(C)C)C(=O)N4[C@H]3c3ccc(O)cc3)cc2)[C@]12C(=O)Nc1ccc(I)cc12", -0.0819],
  ["C[C@H]1C2[C@H](Cc3ccccc3)NC(=O)[C@]23C(=O)N[C@H](Cc2ccccc2)C(=O)N2CCC[C@H]2C(=O)NC/C=C\\C/C=C/C3[C@@H]2O[C@]12C (some centres undefined)", 0.091],
  ["[N-]=[N+]=Nc1ccccc1[C@@H]1OC(c2ccc(OCCCO)cc2)=N[C@]1(CCS(=O)(=O)c1ccccc1)C(N)=O", 0.0975]
]}
